assaySystem: T1, CathepsinG, from human neutrophils (human, UniProt P08311 21-244)
T1 sequence (looked up): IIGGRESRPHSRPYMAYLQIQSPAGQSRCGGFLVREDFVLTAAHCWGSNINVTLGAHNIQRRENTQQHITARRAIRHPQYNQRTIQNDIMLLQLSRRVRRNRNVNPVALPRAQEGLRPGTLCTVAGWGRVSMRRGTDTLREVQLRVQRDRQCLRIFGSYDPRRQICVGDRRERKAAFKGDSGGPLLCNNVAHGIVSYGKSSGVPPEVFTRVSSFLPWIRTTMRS
test: cell-based or functional assay
parameterMeasured: IC50 (nmol)
Supply the numeric figure in nmol, leaving out any unit text.

Find the recorded IC50 belonging to FCTKSDPPICS (HELM PEPTIDE1{F.C.T.K.S.D.P.P.I.C.S.[dP].D}$PEPTIDE1,PEPTIDE1,2:R3-10:R3|PEPTIDE1,PEPTIDE1,1:R1-13:R2$$$V2.0; SMILES CC[C@H](C)[C@@H]1NC(=O)[C@@H]2CCCN2C(=O)[C@@H]2CCCN2C(=O)[C@H](CC(=O)O)NC(=O)[C@H](CO)NC(=O)[C@H](CCCCN)NC(=O)[C@H]([C@@H](C)O)NC(=O)[C@@H]2CSSC[C@H](NC1=O)C(=O)N[C@@H](CO)C(=O)N1CCC[C@@H]1C(=O)N[C@@H](CC(=O)O)C(=O)N[C@@H](Cc1ccccc1)C(=O)N2) [Example 47] and report it. 64

Every entry's value here was drawn from patent US20140213531A1.
